TARGET: SARS-COV-2 spike, Beta variant (B.1.351) (SARS-COV-2, UniProt P0DTC2 14-1273)
TEST_DETAILS: cell-based or functional assay
RECORDED_ENDPOINT: EC50, neutralization of spike pseudotyped virus (nM)

BINDER	REPORTED_VALUE
BP2H9 Nb-huFc (Fc fusion) EVQLQASGGGFVQPGGSLRLSCAASGQTFTHVPMGWFRQAPGKEREFVSAISDTSGFETYYADSVKGRFTISRDNSKNTVYLQMNSLRAEDTATYYCAWAYDQFNWNYWGQGTQVTVSS	0.21
BP2A3 Nb-huFc (Fc fusion) EVQLQASGGGFVQPGGSLRLSCAASGRTFSAYSMGWFRQAPGKEREFVSAISAGDGAASYYADSVKGRFTISRDNSKNTVYLQMNSLRAEDTATYYCAHYYTTSATLDYAYWGQGTQVTVSS	4.44
